Data provenance: patent US11802127B2

- Assay System: P-gp (MDR1) (Homo sapiens)
- Construct: expressed in transfected cells; host or cells: LLC-PK1 (porcine kidney) cells transfected with MDR1
- Sequence (P08183 whole entry): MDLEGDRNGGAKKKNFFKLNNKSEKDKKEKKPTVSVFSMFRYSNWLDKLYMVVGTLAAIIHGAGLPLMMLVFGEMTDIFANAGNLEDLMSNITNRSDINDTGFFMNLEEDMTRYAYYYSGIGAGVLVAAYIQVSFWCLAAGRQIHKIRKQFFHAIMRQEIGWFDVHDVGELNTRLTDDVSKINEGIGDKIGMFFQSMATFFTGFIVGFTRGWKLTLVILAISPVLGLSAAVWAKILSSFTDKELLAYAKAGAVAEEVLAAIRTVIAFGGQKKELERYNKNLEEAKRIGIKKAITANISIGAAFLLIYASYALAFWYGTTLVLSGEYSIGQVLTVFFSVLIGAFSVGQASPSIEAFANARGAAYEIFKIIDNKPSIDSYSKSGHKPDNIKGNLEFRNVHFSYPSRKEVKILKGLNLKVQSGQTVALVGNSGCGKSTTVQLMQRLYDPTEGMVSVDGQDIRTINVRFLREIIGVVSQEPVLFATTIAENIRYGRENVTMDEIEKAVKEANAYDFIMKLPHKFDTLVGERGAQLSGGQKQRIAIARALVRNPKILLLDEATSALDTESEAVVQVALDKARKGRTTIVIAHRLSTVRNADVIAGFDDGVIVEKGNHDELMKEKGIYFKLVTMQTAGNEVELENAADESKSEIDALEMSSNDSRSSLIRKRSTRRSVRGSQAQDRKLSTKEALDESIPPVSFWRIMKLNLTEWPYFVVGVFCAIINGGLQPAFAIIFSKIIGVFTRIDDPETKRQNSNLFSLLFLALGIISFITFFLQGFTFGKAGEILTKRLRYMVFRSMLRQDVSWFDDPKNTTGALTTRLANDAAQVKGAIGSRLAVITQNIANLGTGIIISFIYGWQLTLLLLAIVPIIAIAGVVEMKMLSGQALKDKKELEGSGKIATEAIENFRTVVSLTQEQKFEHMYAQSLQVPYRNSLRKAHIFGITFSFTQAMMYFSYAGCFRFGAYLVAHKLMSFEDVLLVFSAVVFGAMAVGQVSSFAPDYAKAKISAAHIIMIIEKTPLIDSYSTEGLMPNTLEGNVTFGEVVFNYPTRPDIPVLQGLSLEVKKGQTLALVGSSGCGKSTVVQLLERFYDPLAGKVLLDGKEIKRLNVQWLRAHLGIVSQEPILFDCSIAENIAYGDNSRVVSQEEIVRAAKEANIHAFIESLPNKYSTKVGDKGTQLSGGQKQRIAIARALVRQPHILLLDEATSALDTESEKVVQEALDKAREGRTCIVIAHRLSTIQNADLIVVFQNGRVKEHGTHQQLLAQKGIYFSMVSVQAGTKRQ
- Assay Info: Efflux ratio in MDR1 transfected LLC-PK1 cells
- Type: in vitro ADME
- Test Context: pig, Papp(B−A)/Papp(A−B)
Please assign Not fulfilled whenever efflux ratio at 2 h, 1 μM is at or above 2, and Fulfilled whenever it is below.

Some solved entries appear below for comparison.
Molecule | Assigned Label
CCON1CCc2cc(=O)n(C)c(Nc3ccc(Br)cc3F)c2C1=O [Example 3] | Fulfilled
Cc1c2c(c(Nc3ccc(OC(F)F)cc3F)n(C)c1=O)C(=O)N(OCCO)CC2 [Example 62] | Not fulfilled
CC(C)c1ccc(Nc2c3c(cc(=O)n2C)CCN(OCCO)C3=O)c(F)c1 [Example 18] | Not fulfilled

Q: Determine if Cn1c(Nc2ccc(I)cc2F)c2c(cc1=O)CCN(C1CC1)C2=O [Example 5] shows efflux ratio at 2 h, 1 μM strictly lower than 2.
A: Fulfilled

Q: Determine if Cc1c2c(c(Nc3ccc(Br)cc3F)n(C)c1=O)C(=O)NCC2 [Example 47] shows efflux ratio at 2 h, 1 μM strictly lower than 2.
A: Fulfilled

Q: Determine if Cn1c(Nc2ccc(I)cc2F)c2c(cc1=O)CCN(OCCO)C2=O [Example 8] shows efflux ratio at 2 h, 1 μM strictly lower than 2.
A: Not fulfilled

Q: Determine if CSc1ccc(Nc2c3c(c(C)c(=O)n2C)CCNC3=O)c(F)c1 [Example 55] shows efflux ratio at 2 h, 1 μM strictly lower than 2.
A: Fulfilled

Q: Determine if Cn1c(Nc2ccc(Br)cc2Cl)c2c(cc1=O)CCN(OCCO)C2=O [Example 10] shows efflux ratio at 2 h, 1 μM strictly lower than 2.
A: Not fulfilled

Q: Determine if Cc1c2c(c(Nc3ccc(I)cc3F)n(C)c1=O)C(=O)NCC2 [Example 48] shows efflux ratio at 2 h, 1 μM strictly lower than 2.
A: Fulfilled

====

- Assay System: P-gp (MDR1) (Homo sapiens)
- Construct: expressed in transfected cells; host or cells: LLC-PK1 (porcine kidney) cells transfected with MDR1
- Assay Info: Efflux ratio in MDR1 transfected LLC-PK1 cells
- Format: in vitro ADME
- Test Context: pig, Papp(B−A)/Papp(A−B)
Recorded Metric: efflux ratio at 2 h, 1 μM
Answer with a number only.

Here are 4 compounds together with their reported answers.
Compound | Recorded Metric | Endpoint Value
CON1CCc2cc(=O)n(C)c(Nc3ccc(I)cc3F)c2C1=O [Example 29] | efflux ratio at 2 h, 1 μM | 1.5
Cn1c(Nc2ccc(Br)cc2F)c2c(c(Br)c1=O)CCN(OCCO)C2=O [Example 42] | efflux ratio at 2 h, 1 μM | 2.8
CCc1ccc(Nc2c3c(cc(=O)n2C)CCNC3=O)c(F)c1 [Example 51] | efflux ratio at 2 h, 1 μM | 1.2
Cn1c(Nc2ccc(Br)cc2F)c2c(cc1=O)CCN(OCCO)C2=O [Example 7] | efflux ratio at 2 h, 1 μM | 5.4

Q: Quick one: efflux ratio at 2 h, 1 μM of Cc1c2c(c(Nc3ccc(C4CC4)cc3F)n(C)c1=O)C(=O)NCC2 [Example 57] ?
A: 0.9

====

- Assay System: BCRP (hBCRP) (Homo sapiens, UniProt Q9UNQ0)
- Construct: expressed in transfected cells; host or cells: MDCKII (canine kidney) cells, canine P-gp knockout, transfected with BCRP
- Sequence (Q9UNQ0 whole entry): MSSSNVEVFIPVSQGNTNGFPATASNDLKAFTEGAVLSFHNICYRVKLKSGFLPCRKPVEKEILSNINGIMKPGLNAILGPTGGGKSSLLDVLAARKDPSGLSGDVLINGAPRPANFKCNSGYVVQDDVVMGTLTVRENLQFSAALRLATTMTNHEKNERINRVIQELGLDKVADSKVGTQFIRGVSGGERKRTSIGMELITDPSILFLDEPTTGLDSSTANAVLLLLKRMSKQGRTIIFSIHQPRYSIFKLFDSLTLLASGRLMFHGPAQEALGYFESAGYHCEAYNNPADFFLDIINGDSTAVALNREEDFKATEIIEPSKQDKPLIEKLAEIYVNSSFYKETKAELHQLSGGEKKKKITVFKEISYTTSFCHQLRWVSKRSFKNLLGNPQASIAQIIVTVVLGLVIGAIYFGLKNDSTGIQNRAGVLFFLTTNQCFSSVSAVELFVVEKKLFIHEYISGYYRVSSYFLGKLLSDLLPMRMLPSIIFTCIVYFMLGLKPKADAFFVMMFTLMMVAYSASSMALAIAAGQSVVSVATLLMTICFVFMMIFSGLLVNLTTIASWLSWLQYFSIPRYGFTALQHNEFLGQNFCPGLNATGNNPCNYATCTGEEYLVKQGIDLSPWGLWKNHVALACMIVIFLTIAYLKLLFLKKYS
- Assay Info: Efflux ratio in BCRP transfected MDCKII canine P-gp knockout cells
- Type: in vitro ADME
- Test Context: Papp(B−A)/Papp(A−B), read-out: Efflux ratio MDCKII-hBCRP knock-in,canine pg-P KO
Recorded Metric: efflux ratio at 2 h, 1 μM
Answer with a number only.

Here are 6 compounds together with their reported answers.
Compound | efflux ratio at 2 h, 1 μM
Cn1c(Nc2ccc(OC(F)F)cc2F)c2c(cc1=O)CCNC2=O | 1.8
Cn1c(Nc2ccc(I)cc2F)c2c(cc1=O)CCN(C1CC1)C2=O | 1
C[C@H](O)CON1CCc2cc(=O)n(C)c(Nc3ccc(I)cc3F)c2C1=O | 4.4
CCON1CCc2cc(=O)n(C)c(Nc3ccc(I)cc3F)c2C1=O | 1.1
Cn1c(Nc2ccc(Br)cc2F)c2c(cc1=O)C(c1ccccc1)CNC2=O (stereo not drawn) | 1.5
CSc1ccc(Nc2c3c(cc(=O)n2C)CCN(C2CC2)C3=O)c(F)c1 | 1.1

Q: Find the measured efflux ratio at 2 h, 1 μM: item Cn1c(Nc2ccc(OC(F)F)cc2F)c2c(cc1=O)CCN(OCCO)C2=O , target or system BCRP (hBCRP) (Homo sapiens, UniProt Q9UNQ0).
A: 9

Q: Find the measured efflux ratio at 2 h, 1 μM: item Cn1c(Nc2ccc(Br)cc2F)c2c(c(Cl)c1=O)CCN(OCCO)C2=O , target or system BCRP (hBCRP) (Homo sapiens, UniProt Q9UNQ0).
A: 3.3

Q: Find the measured efflux ratio at 2 h, 1 μM: item Cn1c(Nc2ccc(SC(F)F)cc2F)c2c(cc1=O)CCN(OCCO)C2=O , target or system BCRP (hBCRP) (Homo sapiens, UniProt Q9UNQ0).
A: 14.1

Q: Find the measured efflux ratio at 2 h, 1 μM: item Cn1c(Nc2ccc(I)cc2F)c2c(cc1=O)CCN(OCCO)C2=O , target or system BCRP (hBCRP) (Homo sapiens, UniProt Q9UNQ0).
A: 3.4

Q: Find the measured efflux ratio at 2 h, 1 μM: item Cc1c2c(c(Nc3ccc(I)cc3F)n(C)c1=O)C(=O)N(OCCO)CC2 , target or system BCRP (hBCRP) (Homo sapiens, UniProt Q9UNQ0).
A: 1.9
